Where these numbers come from: the supplement of paper PMC8728848

# test-target: Neu5Ac(a2-6)Gal(b1-4)GlcNAc(b1-3)Gal(b1-4)GlcNAc(b1-3)Gal(b1-4)GlcNAc
# assay-procedure: glycan array binding signal (z-score within array); higher = stronger binding
# study-conditions: glycan notation: IUPAC condensed, linker removed
Shown is part of a subset that was picked to be rich in the strongest signals.
# maps each entry to its glycan array binding signal (z-score)

{"binder": "Intelectin-1a (Mus musculus) (protein) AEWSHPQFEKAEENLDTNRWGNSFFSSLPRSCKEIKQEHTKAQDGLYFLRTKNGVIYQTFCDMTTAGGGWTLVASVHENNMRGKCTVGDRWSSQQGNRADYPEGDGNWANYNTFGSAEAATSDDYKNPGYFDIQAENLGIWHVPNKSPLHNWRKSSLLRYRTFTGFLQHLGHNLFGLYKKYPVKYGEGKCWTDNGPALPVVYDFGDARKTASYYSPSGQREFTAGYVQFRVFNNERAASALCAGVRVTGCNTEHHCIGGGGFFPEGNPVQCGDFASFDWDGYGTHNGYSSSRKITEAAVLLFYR", "glycan array binding signal (z-score)": 0.765}
{"binder": "ECA (Erythrina cristagalli), P83410 (protein) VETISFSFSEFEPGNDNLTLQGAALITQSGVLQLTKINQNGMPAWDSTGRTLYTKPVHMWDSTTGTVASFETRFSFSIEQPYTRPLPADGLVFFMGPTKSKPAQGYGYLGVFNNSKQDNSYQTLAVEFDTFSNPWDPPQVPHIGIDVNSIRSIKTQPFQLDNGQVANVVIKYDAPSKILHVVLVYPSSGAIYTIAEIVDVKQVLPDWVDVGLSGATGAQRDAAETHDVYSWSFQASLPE", "glycan array binding signal (z-score)": -0.578}
{"binder": "Threefoil (Haloarcula marismortui) (protein) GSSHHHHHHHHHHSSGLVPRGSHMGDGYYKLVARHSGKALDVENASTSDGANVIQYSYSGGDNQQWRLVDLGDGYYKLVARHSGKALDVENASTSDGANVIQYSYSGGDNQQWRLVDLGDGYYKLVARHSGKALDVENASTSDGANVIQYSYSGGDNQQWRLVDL", "glycan array binding signal (z-score)": -0.154}
{"binder": "LSectin (Mus musculus), Q8BNX1 (protein) MNTGEYNKLGSAIEEVSRGQLGRWECYKQRLFFLVLALLVATVLWALILSTLLSSASSKLRVLLSHQDLLRTNASEQKMTLSSLKDDIGACRNCCSVTKAQLQTTLAEFKDIQAKLMEQESILKELQERVTQDLAKASRDRENIRSELFQALEAVKRQNSSCEQCPPSWLPFQGSCYYFSETQATWDTAQSYCGGQGAHLVIVRGLNEQGFLSQHTRGRGYWLGLRAVRHLNKIQGYRWVDGASLNFSHWNSGEPNDSRGHEDCIMMLHSGLWNDAPCTNERDGWICEKRSSCY", "glycan array binding signal (z-score)": -0.182}
